Exercise: state measured Size for each of the molecules provided.
- run description: Size and charge of LNPs by DLS (Malvern NanoZS)
- Type: physicochemical
- condition label: mRNA(F-Luc) LNPs, total lipid 5 mM, N/P 6
Numbers only, in nm.

Example cases with answers are listed next.
{"columns": ["molecule", "measurement kind", "recorded value"],
 "data": [
  ["CCCCC/C=C\\C/C=C\\CCCCCCCCNC(=O)CCC(NC(=O)CCCN(C)C)C(=O)NCCCCCCCC/C=C\\C/C=C\\CCCCC (stereo not shown) [XIV]", "Size", 99],
  ["CCCCCCCC/C=C\\CCCCCCCC(=O)OCC(C[N+](C)(C)C)OC(=O)CCCCCCC/C=C\\CCCCCCCC (stereo not shown) [DOTAP, reference compound]", "Size", 96],
  ["CCCCCCCC/C=C\\CCCCCCCCNC(=O)CCC(NC(=O)CN(C)C)C(=O)NCCCCCCCC/C=C\\CCCCCCCC (stereo not shown) [I]", "Size", 88]
]}

Suppose we examine the molecule CCCCCCCC/C=C\CCCCCCCCNC(=O)CCC(NC(=O)CCC(=O)NCCSSCCNC(=O)CN(C)C)C(=O)NCCCCCCCC/C=C\CCCCCCCC (stereo not shown) [VI] ; what Size value has been reported?
115

----------
- run description: Encapsulation efficiency / loaded nucleic acid by SyBr Gold fluorescence after Triton X-100 disruption
- Assay type: physicochemical
- condition label: mRNA(GFP) LNPs, total lipid 3.75 mM, N/P 6
measurement kind: Encapsulation Efficiency
Just the number plus its unit, please.

{"columns": ["compound", "recorded value"],
 "data": [
  ["CCCCCCCC/C=C\\CCCCCCCCNC(=O)CCC(NC(=O)CN(C)C)C(=O)NCCCCCCCC/C=C\\CCCCCCCC (stereo not shown)", "94.6%"]
]}

Would you be so kind as to report Encapsulation Efficiency for each listed record?
1. CCCCC/C=C\C/C=C\CCCCCCCCNC(=O)CCC(NC(=O)CCCN(C)C)C(=O)NCCCCCCCC/C=C\C/C=C\CCCCC (stereo not shown)
2. CCCCCCCC/C=C\CCCCCCCCNC(=O)CCC(NC(=O)CCC(=O)NCCSSCCNC(=O)CN(C)C)C(=O)NCCCCCCCC/C=C\CCCCCCCC (stereo not shown)
3. CCCCCCC/C=C\CCCCCCCCNC(=O)CCC(NC(=O)CCCN(C)C)C(=O)NCCCCCCCC/C=C\CCCCCCCC (stereo not shown)

1: 91%; 2: 84%; 3: 98.8%

Would you be so kind as to report Encapsulation Efficiency for each listed record?
1. CCCCC/C=C\C/C=C\CCCCCCCCOC(=O)CCC(NC(=O)CN(C)C)C(=O)OCCCCCCCC/C=C\C/C=C\CCCCC (stereo not shown)
2. CCCCCCC/C=C\CCCCCCCCNC(=O)CCC(NC(=O)OCCN(CC)CC)C(=O)NCCCCCCCC/C=C\CCCCCCCC (stereo not shown)
3. CCCCCCCC/C=C\CCCCCCCC(=O)NCCCC(NC(=O)CCCCCCC/C=C\CCCCCCCC)C(=O)NCCCn1ccnc1 (stereo not shown)

83.6%
89%
78.3%

----------
- run description: Size and charge of LNPs by DLS (Malvern NanoZS)
- Type: physicochemical
- condition label: mRNA(F-Luc) LNPs, total lipid 5 mM, N/P 6
measurement kind: Zeta (mV)
Numbers only, in mV.

{"columns": ["molecule", "Zeta / mV"],
 "data": [
  ["CCCCCCCC/C=C\\CCCCCCCCNC(=O)CCC(NC(=O)CCC(=O)NCCSSCCNC(=O)CN(C)C)C(=O)NCCCCCCCC/C=C\\CCCCCCCC (stereo not shown)", -2.25]
]}

Let us examine a further case.
Suppose we examine the molecule CCCCCCCC/C=C\CCCCCCCCNC(=O)CCC(NC(=O)CN(C)C)C(=O)NCCCCCCCC/C=C\CCCCCCCC (stereo not shown) ; what Zeta value has been reported?
-7.3
